Protocol Notes: Pharmacokinetic study in rat plasma after oral administration of FKQJF extract (UFLC–MS/MS)
Type: in vivo, Sprague-Dawley (SD) rats
Condition Description: Sprague-Dawley, oral FKQJF extract, single dose 3.2 g/kg, mean ± SD, read-out: MRT0→t
Assay Endpoint: MRT last (h)

[[record]]
compound = "COc1cc(O)c2c(=O)cc(-c3ccccc3)oc2c1OC"
scale_unit = "h"
result_number = 2.44

[[record]]
compound = "COc1cc(O[C@@H]2O[C@H](CO)[C@@H](O)[C@H](O)[C@H]2O)cc(OC)c1OC"
scale_unit = "h"
result_number = 2.6


[1] O=Cc1ccc2n1C[C@]1(C[C@H](O)[C@@H](CO)O1)OC2
[2] C=C1CC[C@@H]2[C@](C)(CO)[C@H](O)CC[C@@]2(C)[C@@H]1/C=C/C1=CCOC1=O [Analyte 15, 14-deoxy-11,12-didehydro-andrographolide]
Input line: Higher MRT last: 1 or 2 ? Give the label under which the chosen entry appears.
Output line: 1
